target: T1, human KDR (human, UniProt P35968 20-1356)
T1 construct: whole, on cells; also called VEGFR2; endogenously-expressed KDR in HUVEC cells
T1 sequence (P35968 20-1356): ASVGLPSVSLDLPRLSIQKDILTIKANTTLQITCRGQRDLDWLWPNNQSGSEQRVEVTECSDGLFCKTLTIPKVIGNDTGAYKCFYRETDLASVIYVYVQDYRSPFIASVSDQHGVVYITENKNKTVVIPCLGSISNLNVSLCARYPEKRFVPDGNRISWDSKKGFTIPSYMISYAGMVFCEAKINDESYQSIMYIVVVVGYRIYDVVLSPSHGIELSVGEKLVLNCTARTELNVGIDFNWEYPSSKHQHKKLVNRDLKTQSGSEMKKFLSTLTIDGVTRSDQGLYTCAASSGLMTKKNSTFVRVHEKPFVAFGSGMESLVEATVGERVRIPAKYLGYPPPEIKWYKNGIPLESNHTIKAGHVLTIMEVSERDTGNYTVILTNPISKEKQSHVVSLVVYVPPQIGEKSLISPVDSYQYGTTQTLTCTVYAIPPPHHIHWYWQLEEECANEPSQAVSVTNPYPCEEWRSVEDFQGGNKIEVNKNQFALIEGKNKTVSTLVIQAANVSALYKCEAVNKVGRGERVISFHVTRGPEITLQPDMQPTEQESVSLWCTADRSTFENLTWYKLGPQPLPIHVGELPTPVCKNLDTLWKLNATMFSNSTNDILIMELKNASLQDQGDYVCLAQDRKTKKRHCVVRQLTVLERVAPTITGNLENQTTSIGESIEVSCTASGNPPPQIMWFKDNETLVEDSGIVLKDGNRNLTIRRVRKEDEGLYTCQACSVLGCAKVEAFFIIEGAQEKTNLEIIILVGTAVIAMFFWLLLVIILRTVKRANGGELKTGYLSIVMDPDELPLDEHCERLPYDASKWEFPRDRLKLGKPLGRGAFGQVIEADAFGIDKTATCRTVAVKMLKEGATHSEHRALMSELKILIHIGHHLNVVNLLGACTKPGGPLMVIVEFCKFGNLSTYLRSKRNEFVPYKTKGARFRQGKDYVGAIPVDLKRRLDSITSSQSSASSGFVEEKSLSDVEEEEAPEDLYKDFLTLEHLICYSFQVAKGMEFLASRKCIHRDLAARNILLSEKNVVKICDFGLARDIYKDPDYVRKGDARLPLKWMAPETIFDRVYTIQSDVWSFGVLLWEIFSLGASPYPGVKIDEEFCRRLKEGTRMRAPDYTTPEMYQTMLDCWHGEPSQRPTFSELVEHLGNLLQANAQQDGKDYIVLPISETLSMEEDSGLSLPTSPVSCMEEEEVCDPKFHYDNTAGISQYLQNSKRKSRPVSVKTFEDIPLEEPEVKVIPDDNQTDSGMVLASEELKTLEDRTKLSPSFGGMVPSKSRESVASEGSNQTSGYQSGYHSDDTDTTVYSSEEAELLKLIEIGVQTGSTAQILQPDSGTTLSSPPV
test-details: FACS titration of purified antibody on HUVEC cells (FACS Kd)
Description: The binding affinities of the purified antibodies for endogenously-expressed KDR in HUVEC cells was measured. HUVEC cells were seeded at 150,000 cells/well and incubated with titrations of purified antibody for 4 hours at 4° C. The cells were then washed and incubated with goat anti-human IgG-Fc-Cy5+5 μg/mL 7-Amino-Actinomycin (7AAD) for 30 minutes at 4° C. Bound KDR was detected using FACS analysis.
assay-metric: Kd
Answer format: value, then unit.

Recorded Kd of 21H6 (antibody, V domains shown, Fully human monoclonal antibody from a XenoMouse hybridoma, purified) VH: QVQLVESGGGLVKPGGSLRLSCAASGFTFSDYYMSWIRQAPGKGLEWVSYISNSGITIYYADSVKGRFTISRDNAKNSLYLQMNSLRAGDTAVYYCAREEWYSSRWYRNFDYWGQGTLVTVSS VL: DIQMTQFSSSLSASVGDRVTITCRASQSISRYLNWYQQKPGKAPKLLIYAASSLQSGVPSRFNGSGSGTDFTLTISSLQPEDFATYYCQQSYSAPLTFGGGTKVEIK , please.
17.9 nM

Which measured Kd value corresponds to 24B3 (antibody, V domains shown, Fully human monoclonal antibody from a XenoMouse hybridoma (IgG2 or IgG4 strain), purified) VH: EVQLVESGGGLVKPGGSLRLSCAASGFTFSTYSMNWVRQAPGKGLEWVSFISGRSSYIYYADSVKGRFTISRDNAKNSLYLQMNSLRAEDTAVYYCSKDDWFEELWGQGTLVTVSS VL: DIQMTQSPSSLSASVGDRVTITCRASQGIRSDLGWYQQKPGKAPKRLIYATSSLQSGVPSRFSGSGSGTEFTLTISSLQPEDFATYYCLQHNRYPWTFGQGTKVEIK ?
0.8 nM

Fill in the blank: the reported Kd of 33B1 (antibody, V domains shown, Fully human monoclonal antibody from a XenoMouse hybridoma (IgG2 or IgG4 strain), purified) VH: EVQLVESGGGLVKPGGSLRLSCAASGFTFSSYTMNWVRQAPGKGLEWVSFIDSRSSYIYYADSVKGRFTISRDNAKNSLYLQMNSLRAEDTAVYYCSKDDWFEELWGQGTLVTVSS VL: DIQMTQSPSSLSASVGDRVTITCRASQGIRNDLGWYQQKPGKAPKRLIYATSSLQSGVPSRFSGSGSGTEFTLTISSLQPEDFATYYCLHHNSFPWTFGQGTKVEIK is ____.
0.2 nM
